Kindly supply the reported protein stability index values for the records listed here.
B1: CCNC (parent)
chain: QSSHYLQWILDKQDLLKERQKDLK

Variants of: B1
Assay: protein stability index of a GFP-peptide fusion (GPS, HEK-293T) (PSI 1-6); higher = more stable;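 also: lentivirally expressed fusions sorted by FACS into six bins by GFP to DsRed ratio, PSI derived from sequencing read proportions per bin multiplied by bin number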
Details: c terminus: a fixed tail appended
Write the number on its own, no unit after it.

Problem: Record request: protein stability index value, item D14K
Result: 3.65

Problem: Record request: protein stability index value, item L10P
Result: 4.58

Problem: Record request: protein stability index value, item Y5I
Result: 2.81

Problem: Record request: protein stability index value, item L16G
Result: 3.43

Problem: Record request: protein stability index value, item Q13K
Result: 3.49

Problem: Record request: protein stability index value, item K17H
Result: 2.93

Problem: Record request: protein stability index value, item K12D
Result: 4.21

Problem: Record request: protein stability index value, item K21H
Result: 2.45

Problem: Record request: protein stability index value, item Q13M
Result: 2

Problem: Record request: protein stability index value, item D11Q
Result: 3.39

Problem: Record request: protein stability index value, item I9N
Result: 4.01

Problem: Record request: protein stability index value, item R19A
Result: 2.75

Problem: Record request: protein stability index value, item K12N
Result: 2.79

Problem: Record request: protein stability index value, item E18A
Result: 3.67

Problem: Record request: protein stability index value, item Q13R
Result: 2.6

Problem: Record request: protein stability index value, item Q1A
Result: 2.78

Problem: Record request: protein stability index value, item H4C
Result: 2.22

Problem: Record request: protein stability index value, item L6H
Result: 3.69

Problem: Record request: protein stability index value, item D14C
Result: 2.79

Problem: Record request: protein stability index value, item L16Y
Result: 2.57

Problem: Record request: protein stability index value, item L23G
Result: 4.43

Problem: Record request: protein stability index value, item L15T
Result: 3.72

Problem: Record request: protein stability index value, item S2H
Result: 3.02

Problem: Record request: protein stability index value, item L6E
Result: 5.2

Problem: Record request: protein stability index value, item D14G
Result: 3.8

Problem: Record request: protein stability index value, item D22L
Result: 2.08

Problem: Record request: protein stability index value, item L6C
Result: 3.71

Problem: Record request: protein stability index value, item D11C
Result: 2.96

Problem: Record request: protein stability index value, item H4A
Result: 3

Problem: Record request: protein stability index value, item Q7P
Result: 3.31

Problem: Record request: protein stability index value, item D22V
Result: 2.79

Problem: Record request: protein stability index value, item S2A
Result: 2.14

Problem: Record request: protein stability index value, item H4E
Result: 3.5

Problem: Record request: protein stability index value, item I9M
Result: 3.53

Problem: Record request: protein stability index value, item Y5D
Result: 4.45

Problem: Record request: protein stability index value, item D22T
Result: 2.31

Problem: Record request: protein stability index value, item K17C
Result: 2.71

Problem: Record request: protein stability index value, item S3G
Result: 3.39

Problem: Record request: protein stability index value, item L15A
Result: 4.19

Problem: Record request: protein stability index value, item Y5A
Result: 2.59

Problem: Record request: protein stability index value, item W8I
Result: 3.16

Problem: Record request: protein stability index value, item I9H
Result: 3.64

Problem: Record request: protein stability index value, item H4I
Result: 2.09

Problem: Record request: protein stability index value, item L10M
Result: 3.41

Problem: Record request: protein stability index value, item D22M
Result: 2.55

Problem: Record request: protein stability index value, item K24Y
Result: 2.17
